details: in n-propanol, 313.15 K
measurement.label: solubility (mole fraction)
Could you keep your reply to the number by itself?

## Input Consider the compound "O=C(Nc1ccccc1)c1ccccc1O" . State its measured solubility (mole fraction).
## Output 0.0363

====

conditions: in n-pentanol, 318.15 K
measurement.label: solubility (mole fraction)
Could you keep your reply to the number by itself?

## Input Consider the molecule "O=C(Nc1ccccc1)c1ccccc1O" . State its measured solubility (mole fraction).
## Output 0.0396

====

conditions: in n-propyl acetate, 283.15 K
measurement.label: solubility (mole fraction)
Could you keep your reply to the number by itself?

## Input Consider the molecule "O=C(Nc1ccccc1)c1ccccc1O" . State its measured solubility (mole fraction).
## Output 0.0303

====

settings: in n-pentanol, 293.15 K
measurement.label: solubility (mole fraction)

## Input Consider the molecule "O=C(Nc1ccccc1)c1ccccc1O" . State its measured solubility (mole fraction).
## Output 0.0181

====

conditions: in methyl acetate, 318.15 K
measurement.label: solubility (mole fraction)
Could you keep your reply to the number by itself?

## Input Consider the compound "O=C(Nc1ccccc1)c1ccccc1O" . State its measured solubility (mole fraction).
## Output 0.0879

====

conditions: in n-propanol, 323.15 K
measurement.label: solubility (mole fraction)
Could you keep your reply to the number by itself?

## Input Consider the compound "O=C(Nc1ccccc1)c1ccccc1O" . State its measured solubility (mole fraction).
## Output 0.0479

====

conditions: in ethyl acetate, 293.15 K
measurement.label: solubility (mole fraction)
Could you keep your reply to the number by itself?

## Input Consider the molecule "O=C(Nc1ccccc1)c1ccccc1O" . State its measured solubility (mole fraction).
## Output 0.0432

====

settings: in n-propyl acetate, 308.15 K
measurement.label: solubility (mole fraction)
Could you keep your reply to the number by itself?

## Input Consider the compound "O=C(Nc1ccccc1)c1ccccc1O" . State its measured solubility (mole fraction).
## Output 0.0542

====

settings: in n-butanol, 283.15 K
measurement.label: solubility (mole fraction)
Could you keep your reply to the number by itself?

## Input Consider the compound "O=C(Nc1ccccc1)c1ccccc1O" . State its measured solubility (mole fraction).
## Output 0.013

====

settings: in isopropanol, 293.15 K
measurement.label: solubility (mole fraction)
Could you keep your reply to the number by itself?

## Input Consider the molecule "O=C(Nc1ccccc1)c1ccccc1O" . State its measured solubility (mole fraction).
## Output 0.0225

====

conditions: in ethanol, 303.15 K
measurement.label: solubility (mole fraction)
Could you keep your reply to the number by itself?

## Input Consider the molecule "O=C(Nc1ccccc1)c1ccccc1O" . State its measured solubility (mole fraction).
## Output 0.0322

====

conditions: in isopropanol, 283.15 K
measurement.label: solubility (mole fraction)

## Input Consider the compound "O=C(Nc1ccccc1)c1ccccc1O" . State its measured solubility (mole fraction).
## Output 0.0169

====

settings: in isopropyl acetate, 318.15 K
measurement.label: solubility (mole fraction)
Could you keep your reply to the number by itself?

## Input Consider the compound "O=C(Nc1ccccc1)c1ccccc1O" . State its measured solubility (mole fraction).
## Output 0.0638

====

conditions: in isopropyl acetate, 323.15 K
measurement.label: solubility (mole fraction)
Could you keep your reply to the number by itself?

## Input Consider the compound "O=C(Nc1ccccc1)c1ccccc1O" . State its measured solubility (mole fraction).
## Output 0.0709

====

conditions: in n-butyl acetate, 303.15 K
measurement.label: solubility (mole fraction)
Could you keep your reply to the number by itself?

## Input Consider the molecule "O=C(Nc1ccccc1)c1ccccc1O" . State its measured solubility (mole fraction).
## Output 0.0435

Origin of measurements: BigSolDB 2.1
